biological target: FAD-linked sulfhydryl oxidase ALR (Homo sapiens); test: ALR-catalysed DTT oxidation blockers – biochemical, H2O2 detection, luminescence, cherry-pick, dose response (AID 493248)
Sequence (P55789 whole entry): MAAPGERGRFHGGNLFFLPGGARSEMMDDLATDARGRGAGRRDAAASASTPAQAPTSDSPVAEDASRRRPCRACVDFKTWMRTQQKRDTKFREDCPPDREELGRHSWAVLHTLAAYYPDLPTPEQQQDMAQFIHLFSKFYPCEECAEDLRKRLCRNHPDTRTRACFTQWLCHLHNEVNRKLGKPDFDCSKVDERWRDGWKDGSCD
Calls of active or inactive are those of the source.
measure: AC50

// worked examples, AC50 included
# compound, assayed_system, AC50
records = [
    ("CCN(CC)c1ccc(NC(=O)CNCc2ccccc2Cl)c(C)c1", "FAD-linked sulfhydryl oxidase ALR (Homo sapiens)", "1610 nM (active)"),
    ("COc1ccc(-c2cc(=O)oc3c(O)c(O)ccc23)cc1", "FAD-linked sulfhydryl oxidase ALR (Homo sapiens)", "1350 nM (active)"),
    ("COc1cc(/C=N/N2C(C)CCCC2C)cc(Br)c1O (stereo not drawn)", "FAD-linked sulfhydryl oxidase ALR (Homo sapiens)", "495 nM (active)"),
]

Could you report AC50 for every entry in the following list?
1. COc1ccc(-c2c[nH]nc2-c2ccc(OC)cc2O)cc1
2. COc1cc(/C=N/Nc2ccc(Cl)c(C(=O)O)c2)ccc1OC(=O)c1cccs1

["9800 nM (active)", "5230 nM (active)"]

For each of the compounds below, note its AC50.
1. CC(=O)N1CCN=C1SCc1c(F)cccc1Cl
2. N#CCC(=O)Nc1ccc(C(=O)Nc2cccnc2)cc1
3. COC(=O)c1ccccc1N=Nc1c(N)n[nH]c1N
4. O=S(=O)(Nc1ccc(N2CCCCC2)cc1)c1ccccc1F
5. NNS(=O)(=O)c1ccc2c(c1)Cc1cc(S(=O)(=O)NN)ccc1-2

1: 631 nM (active); 2: 870 nM (active); 3: 6650 nM (active); 4: 2080 nM (active); 5: 79 nM (active)

* * *

I'd be grateful if you could share measured IC50 for these entries.
target: Calpain-2 catalytic subunit (Sus scrofa, UniProt P43367); assay: m-calpain protease blockers, concentration series – biochemical, fluorogenic peptide substrate, dose response (AID 1420); type: functional
Sequence (P43367 whole entry): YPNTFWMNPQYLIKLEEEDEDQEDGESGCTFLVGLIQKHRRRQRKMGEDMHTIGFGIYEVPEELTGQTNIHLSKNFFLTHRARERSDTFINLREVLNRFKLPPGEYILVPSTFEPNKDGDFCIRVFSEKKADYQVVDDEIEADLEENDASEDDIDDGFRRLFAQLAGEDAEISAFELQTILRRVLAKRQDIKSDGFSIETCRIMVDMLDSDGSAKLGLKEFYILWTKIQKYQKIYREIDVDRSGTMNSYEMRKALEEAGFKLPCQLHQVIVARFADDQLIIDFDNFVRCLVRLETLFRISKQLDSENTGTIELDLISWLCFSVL
Active and inactive are the calls of the source.

Example cases with answers are listed next.
# compound, IC50
rows = [
    ("Cc1cc2cc(CN=C(S)NC3CCCCC3)ccc2[nH]1", "34.6 µM (not active)"),
    ("CCOc1ccc(CC(=O)OCn2nnc3ccccc3c2=O)cc1", "24.4 µM (not active)"),
    ("O=C(CCCCCN1C(=O)c2ccccc2C1=O)Nc1ccc(F)cc1", "11.1 µM (not active)"),
]

Provide IC50 for all items below, preserving their order.
1. CCC(C)C(NC(=O)c1ccc(Cl)cc1)C(=O)Nc1cccnc1 (configuration not stated)
2. O=C1OC(c2cccc([N+](=O)[O-])c2)C2(CCCC2)C(=O)C12CCCCC2 (configuration not stated)
3. COc1ccc(-c2cc(C(=O)N3CCCc4ccccc43)no2)cc1
4. Cc1ccc2cc(CCNC(=O)c3cc4ccccc4o3)c(O)nc2c1C
5. CCc1ccc(NC(=O)c2noc(C(C)C)c2[N+](=O)[O-])cc1
6. CC(C)=CC1C(C(=O)Nc2ccc(Br)cn2)C1(C)C (configuration not stated)
7. CSc1nc(Oc2ccccc2)c2sccc2n1
8. CC(C)Cn1c(S)nnc1-c1csc(C(C)C)c1

["7.69 µM (not active)", "> 50 µM (not active)", "13.4 µM (not active)", "> 50 µM (not active)", "6.83 µM (not active)", "6.34 µM (not active)", "< 0.4 µM (not active)", "10.8 µM (active)"]

Query CCCCCCCCn1c2c(c(=N)c3ccccc31)CCC2 on Calpain-2 catalytic subunit (Sus scrofa, UniProt P43367); IC50 returned: 7.78 µM (not active)
